Biological target: T1, full-length beta-Catenin (Uniprot ID P35222) (Homo sapiens (Human), UniProt P35222 2-781)
T1 construct: the AlphaScreen assay uses a Histidine (Nickel Chelate) detection kit, so a His tag is likely there; also called B-Catenin; bCat
T1 sequence: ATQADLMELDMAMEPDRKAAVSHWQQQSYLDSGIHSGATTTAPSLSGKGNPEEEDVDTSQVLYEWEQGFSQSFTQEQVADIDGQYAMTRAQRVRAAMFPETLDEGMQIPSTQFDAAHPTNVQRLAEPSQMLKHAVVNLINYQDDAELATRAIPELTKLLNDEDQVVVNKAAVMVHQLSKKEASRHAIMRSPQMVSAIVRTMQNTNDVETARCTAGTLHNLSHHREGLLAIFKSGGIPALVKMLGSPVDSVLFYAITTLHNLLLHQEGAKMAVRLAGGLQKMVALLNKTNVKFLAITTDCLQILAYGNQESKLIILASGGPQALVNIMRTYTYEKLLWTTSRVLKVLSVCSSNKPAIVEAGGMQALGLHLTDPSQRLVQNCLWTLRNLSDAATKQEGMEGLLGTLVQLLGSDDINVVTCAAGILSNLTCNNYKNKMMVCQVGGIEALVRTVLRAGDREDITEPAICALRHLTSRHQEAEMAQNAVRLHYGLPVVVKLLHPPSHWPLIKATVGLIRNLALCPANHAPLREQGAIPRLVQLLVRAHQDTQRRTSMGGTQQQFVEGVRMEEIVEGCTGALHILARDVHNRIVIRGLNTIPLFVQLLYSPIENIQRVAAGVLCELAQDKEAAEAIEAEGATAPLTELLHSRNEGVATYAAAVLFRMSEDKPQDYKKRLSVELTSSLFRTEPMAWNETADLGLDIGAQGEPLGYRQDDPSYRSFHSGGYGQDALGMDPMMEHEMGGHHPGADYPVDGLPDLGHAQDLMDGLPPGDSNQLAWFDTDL
Assay: fluorescence polarization competition; full-length beta-catenin with 5FAM-TCF4(10-53) probe as competitor
Starred links: 1 amine or outer side, 2 acyl side, 3 side chain; linkers in the order of their positions; H or OH if unused. Positions of bridges follow the written chain, without caps; N, C: chain ends. Non-standard residues stand in square brackets, D forms with d. Primed or numbered codes have the meaning given here. RdN(3) = (R)-4-(((allyloxy)carbonyl)(methyl)amino)-2-amino-2-methylbutanoic acid, stapling residue, C=CCOC(=O)N(C)CC[C@@](C)(N[*:1])C(=O)[*:2]; B5(5) = 2,2-bis(4-pentenyl)glycine, 2-amino-2-(pent-4-en-1-yl)hept-6-enoic acid (stitching residue), C=CCCCC(CCCC=C)(N[*:1])C(=O)[*:2]; S7 = C[C@@](CCCCCC=[*:3])(N[*:1])C(=O)[*:2]; αAllylPro = C=CC[C@@]1(C(=O)O)CCCN1; S8 = C=CCCCCCC[C@](C)(N)C(=O)O
measurement-kind: EC50

• Ac-[αAllylPro]DI[B5(5)]DDAAFQ[S8]FWH-NH2 (staple 1-4, 4-11, stapled peptide) [I-175] = 1760 nM
• XDAXDXAAFVXFWQ (not fully specified; as printed: Ac-PL3-Asp-Ala-B5-Asp-EtGA-Ala-Ala-Phe-Val-S8-Phe-Trp-Gln-NH2; N-terminal acetyl, C-terminal amide; PL3(1), B5(4), EtGA(6), S8(11); staples PL3-B5 and B5-S8 by olefin metathesis, stapled peptide) [I-172] = 5000 nM
• Ac-ADI[RdN(3)]DEAAFQ[S7]FWA-NH2 (staple 4-11, stapled peptide composition) [I-153] = 2140 nM
